Reference source for all entries: patent US9982242B2

test system: CLPC; conditions: additive 1.0 mM, CLPC 20 mg, rac-2 0.8 mM, […], 48 h
Please respond with class 1 when measured OP/% ee of (S)-2 with additive is strictly beneath 80 % ee, and with class 0 in all other cases.

Please review the entries below; each comes with its answer.
>>> df
              sample_smiles  classification
0        [Ca+2].[Cl-].[Cl-]         class 0
1    c1cnc2c(c1)ccc1cccnc12         class 1
2  O=S(=O)([O-])[O-].[Cu+2]         class 0
3  O=S(=O)([O-])[O-].[Mg+2]         class 0

Please examine the following record next.
Ask: Is 80 % ee strictly greater than the compound's reported OP/% ee of (S)-2 with additive? compound: `[Cl-].[Cl-].[Zn+2]`
Result: class 1

----------
tested on: CLPC; conditions: additive 1.0 mM, CLPC 20 mg, rac-2 0.8 mM, […], 48 h
OP/% ee of (S)-2 with additive values, listed per item
The reply should be a number in % ee, with the unit left off.

Sample answers from the record:
In [3]: df
Out[3]:
   sample_smiles  target_of_assay  quantitative_readout
0   [Cl][Mn][Cl]             CLPC                  80.4
1   [Cl][Ni][Cl]             CLPC                  77.7

Now consider the entry below.
Ask: Record request: OP/% ee of (S)-2 with additive value, item `[Cl][Fe]([Cl])[Cl]`
Result: 79.6
